The entries below are paired with their reported Ki.
Target: UniProt:P21554
Sequence (P21554 whole entry): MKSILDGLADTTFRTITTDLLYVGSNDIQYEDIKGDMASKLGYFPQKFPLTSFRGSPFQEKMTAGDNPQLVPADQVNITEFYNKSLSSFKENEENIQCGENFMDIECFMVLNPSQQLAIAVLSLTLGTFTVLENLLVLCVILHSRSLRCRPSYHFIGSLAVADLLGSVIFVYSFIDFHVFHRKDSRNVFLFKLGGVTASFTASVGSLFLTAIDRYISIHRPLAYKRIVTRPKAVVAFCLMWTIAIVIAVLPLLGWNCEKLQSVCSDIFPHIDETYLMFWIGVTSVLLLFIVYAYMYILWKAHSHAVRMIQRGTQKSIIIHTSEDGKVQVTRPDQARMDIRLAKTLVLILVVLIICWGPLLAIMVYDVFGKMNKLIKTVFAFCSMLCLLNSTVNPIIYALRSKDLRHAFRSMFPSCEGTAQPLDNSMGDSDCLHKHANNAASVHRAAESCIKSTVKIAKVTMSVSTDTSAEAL
Experiment: Radioligand binding assay, [3H]-CP-55,940, membranes of HEK cells expressing human CNR1
Settings: 1.5 nM [3H]-CP-55,940, HEK cell membranes, 1 h at 30° C.
recorded-endpoint: Ki

> print(dat)
                                   molecule  recorded.endpoint  measured
1  C#Cc1ccccc1Cn1nnc2c(N3CCC4(C3)N=N4)nc(C(C)(C)C)nc21 [Example 5]                 Ki  0.132 µM
2  C#Cc1ccccc1Cn1nnc2c(N3CCC4(C3)N=N4)nc(C(F)(F)c3ccccc3)nc21 [Example 11]                 Ki  0.465 µM
3  C#Cc1cccc(C2(C(F)(F)F)N=N2)c1Cn1nnc2c(N3CCC(F)(F)C3)nc(C(F)(F)c3ccccc3)nc21 [Example 12]                 Ki   3.39 µM
4  CC(C)(C)c1nc(N2CCC(F)(F)C2)c2nnn(Cc3ccc(C4(C(F)(F)F)N=N4)cc3Cl)c2n1 [Example 8]                 Ki   > 10 µM
5  Cc1nonc1Cn1nnc2c(N3CCC4(C3)N=N4)nc(C(F)(F)c3ccccc3)nc21 [Example 7]                 Ki   5.41 µM
6  C#Cc1cccc(C2(C(F)(F)F)N=N2)c1Cn1nnc2c(N3CC[C@H](O)C3)nc(C(F)(F)c3ccccc3)nc21 [Example 15]                 Ki   > 10 µM
7  C#Cc1cccc(C2(C(F)(F)F)N=N2)c1Cn1nnc2c(N3CCC(F)(F)C3)nc(C(C)(C)C)nc21 [Example 13]                 Ki  0.147 µM

* * *

pKi: −log10 of the molar value.
Record set of pKi for target or system UniProt P34972.
Sequence (P34972 whole entry): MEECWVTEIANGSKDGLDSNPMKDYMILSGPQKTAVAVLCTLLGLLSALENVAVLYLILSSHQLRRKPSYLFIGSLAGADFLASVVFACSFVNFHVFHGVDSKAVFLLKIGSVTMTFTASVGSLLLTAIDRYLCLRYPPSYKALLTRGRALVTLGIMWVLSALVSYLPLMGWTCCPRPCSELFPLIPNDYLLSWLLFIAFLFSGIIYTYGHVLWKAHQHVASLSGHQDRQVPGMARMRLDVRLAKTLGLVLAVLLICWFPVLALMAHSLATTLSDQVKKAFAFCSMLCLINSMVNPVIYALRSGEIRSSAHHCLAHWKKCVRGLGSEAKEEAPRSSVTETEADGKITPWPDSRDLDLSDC
recorded-endpoint: pKi

> print(dat)
                                   molecule  measured
1  Cc1nonc1Cn1nnc2c(N3CCC4(C3)N=N4)nc(C(C)(C)C)nc21 [Example 1]      7.79
2  C#Cc1cccc(C2(C(F)(F)F)N=N2)c1Cn1nnc2c(N3CC[C@H](O)C3)nc(C(C)(C)C)nc21 [Example 14]      7.92
3  FC(F)(c1ccccc1)c1nc(N2CCC3(C2)N=N3)c2nnn(Cc3ccccc3Cl)c2n1 [Example 6]      8.00
4  C#Cc1cccc(C2(C(F)(F)F)N=N2)c1Cn1nnc2c(N3CCC(F)(F)C3)nc(C(C)(C)C)nc21 [Example 13]      8.05
